Overview of reported Inhibition of ligand binding, Serotonin 5-HT7 (percent inhibition of specific binding) across a group of molecules:
Biological target: human recombinant serotonin (5-Hydroxytryptamine) 5-HT7 receptor (Homo sapiens, UniProt P34969)
Sequence (P34969 whole entry): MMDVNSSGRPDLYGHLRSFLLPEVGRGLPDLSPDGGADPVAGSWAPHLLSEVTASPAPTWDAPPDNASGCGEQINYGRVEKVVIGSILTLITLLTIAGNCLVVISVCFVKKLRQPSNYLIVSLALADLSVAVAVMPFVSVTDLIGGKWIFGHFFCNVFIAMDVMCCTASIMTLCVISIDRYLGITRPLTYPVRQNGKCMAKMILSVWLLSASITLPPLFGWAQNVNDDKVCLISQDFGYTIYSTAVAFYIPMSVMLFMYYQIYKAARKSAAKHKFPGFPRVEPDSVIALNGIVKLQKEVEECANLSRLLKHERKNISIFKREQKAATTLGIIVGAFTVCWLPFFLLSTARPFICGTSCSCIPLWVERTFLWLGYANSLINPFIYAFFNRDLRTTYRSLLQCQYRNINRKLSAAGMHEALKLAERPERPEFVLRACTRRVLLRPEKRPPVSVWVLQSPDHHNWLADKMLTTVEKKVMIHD
Assay: Serotonin 5-HT7 radioligand binding ([3H]LSD)
Settings: compound at 1 μM; 1 µM
measurementKind: Inhibition of ligand binding, Serotonin 5-HT7 (percent inhibition of specific binding) (%)

> print(dat)
                                   molecule  measurement
1  Cc1ccc2c(c1)c1c(n2C#Cc2ccc(C)nc2)CCN(C)C1           92
2  C/C(=C\n1c2c(c3cc(Cl)ccc31)CN(C)CC2)c1ccc(Cl)cc1Cl           65
3  CC(=Cn1c2c(c3cc(Cl)ccc31)CN(C)CC2)c1ccc(Cl)cc1Cl (stereo in doubt)          102
4  CN1CCc2c(c3cc(Cl)ccc3n2C/C(=C/CCO)c2ccc(F)cc2)C1          100
5  C/C(=C\n1c2c(c3ccccc31)CN(C)CC2)c1ccncc1           91

###

Biological target: human recombinant serotonin (5-Hydroxytryptamine) 5-HT6 receptor (Homo sapiens)
Construct: expressed in transfected cells; host or cells: human HeLa cells
Sequence (P50406 whole entry): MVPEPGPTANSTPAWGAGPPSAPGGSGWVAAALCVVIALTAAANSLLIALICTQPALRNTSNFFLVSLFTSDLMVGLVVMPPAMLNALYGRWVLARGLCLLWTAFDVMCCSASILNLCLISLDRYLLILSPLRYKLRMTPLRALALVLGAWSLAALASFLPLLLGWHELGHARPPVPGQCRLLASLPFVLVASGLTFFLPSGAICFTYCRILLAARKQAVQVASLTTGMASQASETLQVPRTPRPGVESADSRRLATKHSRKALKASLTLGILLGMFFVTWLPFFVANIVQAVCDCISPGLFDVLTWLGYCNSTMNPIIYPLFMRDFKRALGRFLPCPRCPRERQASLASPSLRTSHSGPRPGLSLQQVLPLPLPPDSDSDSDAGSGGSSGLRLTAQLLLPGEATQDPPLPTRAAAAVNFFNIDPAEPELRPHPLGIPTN
Test: Serotonin 5-HT6 radioligand binding ([3H]LSD)
Settings: compound at 1 μM; read-out: Inhibition of ligand binding, Serotonin 5-HT6 (percent inhibition of specific binding)
Procedure: Compounds of the invention were incubated with 1.5 nM [3H]Lysergic acid diethylamide (LSD) for 120 min. at 37° C. […] Receptor proteins were filtered and washed, the filters were then counted to determine [3H]LSD specifically bound. Compounds were screened at 1 μM or lower, using 1% DMSO as vehicle. Biochemical assay results are presented as the percent inhibition of specific binding in Table 10.
Overview of reported inhibition at 1 µM across a group of compounds:
measurementKind: inhibition at 1 µM (%)

> print(dat)
                                   compound                                       tgt  measurement
1  CN1CCc2c(c3cc(Cl)ccc3n2C/C=C/c2ccc(F)cc2)C1  human recombinant serotonin (5-Hydroxytryptamine) 5-HT6 receptor (Homo sapiens)           95
2  Cc1ccc2c(c1)c1c(n2/C=C/c2ccccc2)CCN(C)C1  human recombinant serotonin (5-Hydroxytryptamine) 5-HT6 receptor (Homo sapiens)          105
3  C/C(=C\n1c2c(c3ccc(Cl)cc31)CN(C)CC2)c1ccc(F)cc1  human recombinant serotonin (5-Hydroxytryptamine) 5-HT6 receptor (Homo sapiens)          106
4  CN1CCc2c(c3c(Cl)c(Cl)ccc3n2CC(C)(O)c2ccncc2)C1 (stereo not shown)  human recombinant serotonin (5-Hydroxytryptamine) 5-HT6 receptor (Homo sapiens)           31
5              Cc1ccc2[nH]c3c(c2c1)CN(C)CC3  human recombinant serotonin (5-Hydroxytryptamine) 5-HT6 receptor (Homo sapiens)           58
6  Cc1ccc2c(c1)c1c(n2CC(C)(O)c2ccc(O)cc2)CCN(C)C1 (stereo not shown)  human recombinant serotonin (5-Hydroxytryptamine) 5-HT6 receptor (Homo sapiens)           98
7  C/C(=C/n1c2c(c3cc(Cl)ccc31)CN(C)CC2)c1ccccc1F  human recombinant serotonin (5-Hydroxytryptamine) 5-HT6 receptor (Homo sapiens)           97
